Where do these numbers come from? They come from patent US20250188092A1.

target: E. coli WT RNAP (Escherichia coli); construct: made in house; assay: biochemical
Sequence (P0A8V2 whole entry): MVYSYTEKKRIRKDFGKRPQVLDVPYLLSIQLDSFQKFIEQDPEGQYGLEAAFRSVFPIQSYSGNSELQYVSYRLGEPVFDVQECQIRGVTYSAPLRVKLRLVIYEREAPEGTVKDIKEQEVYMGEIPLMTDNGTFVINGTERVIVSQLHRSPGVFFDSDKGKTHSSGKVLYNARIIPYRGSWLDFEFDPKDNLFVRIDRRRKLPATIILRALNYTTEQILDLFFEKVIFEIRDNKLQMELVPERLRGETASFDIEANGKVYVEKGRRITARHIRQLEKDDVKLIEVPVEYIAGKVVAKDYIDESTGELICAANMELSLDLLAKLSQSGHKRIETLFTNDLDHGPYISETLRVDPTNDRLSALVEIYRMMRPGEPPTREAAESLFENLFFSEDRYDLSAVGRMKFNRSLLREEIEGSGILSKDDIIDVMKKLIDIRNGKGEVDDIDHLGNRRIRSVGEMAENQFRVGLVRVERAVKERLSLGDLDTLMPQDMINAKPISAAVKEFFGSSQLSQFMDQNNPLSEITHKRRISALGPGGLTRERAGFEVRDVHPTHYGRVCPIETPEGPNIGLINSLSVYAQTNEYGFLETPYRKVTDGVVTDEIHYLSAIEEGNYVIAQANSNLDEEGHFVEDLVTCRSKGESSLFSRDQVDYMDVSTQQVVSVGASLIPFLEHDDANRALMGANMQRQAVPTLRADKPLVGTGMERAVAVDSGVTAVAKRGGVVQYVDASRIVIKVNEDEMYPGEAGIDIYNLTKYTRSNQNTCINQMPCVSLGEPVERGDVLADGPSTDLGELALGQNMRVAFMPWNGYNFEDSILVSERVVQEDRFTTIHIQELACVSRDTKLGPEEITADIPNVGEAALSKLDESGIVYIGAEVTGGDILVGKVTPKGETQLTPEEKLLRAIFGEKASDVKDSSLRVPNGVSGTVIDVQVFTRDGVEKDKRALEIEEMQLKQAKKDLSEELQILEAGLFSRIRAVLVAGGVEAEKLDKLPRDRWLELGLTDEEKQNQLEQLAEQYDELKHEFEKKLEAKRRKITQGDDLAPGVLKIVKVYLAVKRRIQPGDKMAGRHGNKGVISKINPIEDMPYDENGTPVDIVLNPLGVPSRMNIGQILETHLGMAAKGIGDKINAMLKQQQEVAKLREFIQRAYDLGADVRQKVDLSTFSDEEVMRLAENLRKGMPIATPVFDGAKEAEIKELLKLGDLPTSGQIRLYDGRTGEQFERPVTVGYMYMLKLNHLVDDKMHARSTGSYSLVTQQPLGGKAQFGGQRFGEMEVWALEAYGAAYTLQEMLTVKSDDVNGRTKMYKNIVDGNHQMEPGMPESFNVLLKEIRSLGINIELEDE
Sequence (P0A8T7 whole entry partner): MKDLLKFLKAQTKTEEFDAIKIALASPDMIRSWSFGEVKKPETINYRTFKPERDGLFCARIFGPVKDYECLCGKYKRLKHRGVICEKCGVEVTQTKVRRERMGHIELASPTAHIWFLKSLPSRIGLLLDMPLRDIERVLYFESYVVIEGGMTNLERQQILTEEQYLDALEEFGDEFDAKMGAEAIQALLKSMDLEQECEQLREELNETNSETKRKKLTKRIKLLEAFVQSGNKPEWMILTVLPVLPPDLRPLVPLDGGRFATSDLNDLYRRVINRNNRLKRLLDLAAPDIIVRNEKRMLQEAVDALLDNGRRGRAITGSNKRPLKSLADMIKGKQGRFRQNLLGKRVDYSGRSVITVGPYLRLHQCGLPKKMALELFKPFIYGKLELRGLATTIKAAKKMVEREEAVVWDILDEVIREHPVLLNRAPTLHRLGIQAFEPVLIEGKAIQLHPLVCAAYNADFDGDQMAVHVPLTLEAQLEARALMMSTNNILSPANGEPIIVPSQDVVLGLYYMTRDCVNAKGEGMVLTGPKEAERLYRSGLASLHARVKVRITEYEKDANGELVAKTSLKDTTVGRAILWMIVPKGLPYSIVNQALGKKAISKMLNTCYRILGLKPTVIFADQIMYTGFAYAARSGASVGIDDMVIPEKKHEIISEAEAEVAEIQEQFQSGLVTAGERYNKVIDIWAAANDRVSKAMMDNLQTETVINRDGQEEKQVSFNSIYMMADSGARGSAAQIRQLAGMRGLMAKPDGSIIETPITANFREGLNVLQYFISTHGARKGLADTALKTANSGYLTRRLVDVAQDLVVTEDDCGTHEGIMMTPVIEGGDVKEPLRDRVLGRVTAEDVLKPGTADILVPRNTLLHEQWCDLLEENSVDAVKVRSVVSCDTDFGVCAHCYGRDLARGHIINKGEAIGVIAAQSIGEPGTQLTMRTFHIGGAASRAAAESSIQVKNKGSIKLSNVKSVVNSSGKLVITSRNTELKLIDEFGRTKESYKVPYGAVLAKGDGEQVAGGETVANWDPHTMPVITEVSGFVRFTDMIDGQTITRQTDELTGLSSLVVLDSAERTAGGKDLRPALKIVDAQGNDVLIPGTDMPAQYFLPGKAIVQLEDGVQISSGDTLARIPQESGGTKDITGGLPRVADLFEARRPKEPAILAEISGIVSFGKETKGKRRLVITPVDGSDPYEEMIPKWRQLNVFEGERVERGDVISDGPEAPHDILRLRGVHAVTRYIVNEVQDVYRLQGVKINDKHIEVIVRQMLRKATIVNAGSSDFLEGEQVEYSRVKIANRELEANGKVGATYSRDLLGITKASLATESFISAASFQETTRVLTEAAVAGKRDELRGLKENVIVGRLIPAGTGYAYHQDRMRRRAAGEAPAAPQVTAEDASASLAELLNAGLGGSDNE
Sequence (P0A7Z4 whole entry partner): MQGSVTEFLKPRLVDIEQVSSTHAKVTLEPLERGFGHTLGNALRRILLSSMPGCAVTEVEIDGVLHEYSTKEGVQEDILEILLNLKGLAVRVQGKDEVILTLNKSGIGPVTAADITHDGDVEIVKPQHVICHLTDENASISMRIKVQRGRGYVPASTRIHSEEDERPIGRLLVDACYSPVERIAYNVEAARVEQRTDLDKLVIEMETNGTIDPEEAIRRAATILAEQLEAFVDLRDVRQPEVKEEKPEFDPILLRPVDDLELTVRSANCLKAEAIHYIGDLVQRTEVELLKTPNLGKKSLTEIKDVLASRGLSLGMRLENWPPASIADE
Sequence (P0A800 whole entry partner): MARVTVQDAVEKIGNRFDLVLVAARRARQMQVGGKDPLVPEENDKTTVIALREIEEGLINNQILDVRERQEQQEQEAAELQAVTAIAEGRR
Sequence (P00579 whole entry partner): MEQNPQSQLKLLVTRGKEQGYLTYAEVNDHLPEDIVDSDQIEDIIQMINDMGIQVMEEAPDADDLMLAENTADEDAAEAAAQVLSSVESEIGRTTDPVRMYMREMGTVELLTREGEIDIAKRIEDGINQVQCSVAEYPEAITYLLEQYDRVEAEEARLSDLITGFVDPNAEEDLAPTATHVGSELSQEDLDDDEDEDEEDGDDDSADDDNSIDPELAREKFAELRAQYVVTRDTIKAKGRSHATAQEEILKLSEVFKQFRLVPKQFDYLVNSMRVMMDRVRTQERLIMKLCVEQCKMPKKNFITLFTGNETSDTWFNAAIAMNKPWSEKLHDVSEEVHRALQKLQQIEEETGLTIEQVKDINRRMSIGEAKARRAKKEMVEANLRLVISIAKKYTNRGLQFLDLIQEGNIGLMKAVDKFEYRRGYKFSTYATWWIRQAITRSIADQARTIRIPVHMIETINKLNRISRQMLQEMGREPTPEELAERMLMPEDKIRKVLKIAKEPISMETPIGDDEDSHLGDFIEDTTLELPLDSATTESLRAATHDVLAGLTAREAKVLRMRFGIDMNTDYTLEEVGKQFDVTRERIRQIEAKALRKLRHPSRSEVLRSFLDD
Record form. Attribute: pIC50. Fill in for each entry.
One number for each entry, as −log10 of the molar value.

Sample records with pIC50:
1) CO[C@H]1/C=C/O[C@@]2(C)Oc3c(C)c(O)c4c(=O)c(c5oc6cc(N7CCN(CC(C)C)CC7)cc(OCc7ccc(CN8CCN(C(=O)CN9CCOCC9)CC8)cc7)c6nc-5c4c3C2=O)NC(=O)/C(C)=C\C=C\[C@H](C)[C@H](O)[C@@H](C)[C@@H](O)[C@@H](C)[C@H](OC(C)=O)[C@@H]1C [Compound 17d]; 7.80
2) CO[C@H]1/C=C/O[C@@]2(C)Oc3c(C)c(O)c4c(=O)c(c5oc6cccc(OCc7ccc(CN8CCN(C(=O)CN9CCOCC9)CC8)cc7)c6nc-5c4c3C2=O)NC(=O)/C(C)=C\C=C\[C@H](C)[C@H](O)[C@@H](C)[C@@H](O)[C@@H](C)[C@H](OC(C)=O)[C@@H]1C [Compound 16c]; 8.30

Kindly consider the entry below.
Incoming: Please look up its pIC50: CO[C@H]1/C=C/O[C@@]2(C)Oc3c(C)c(O)c4c(=O)c(c5oc6cc(N7CCN(CC(C)C)CC7)cc(OCCCCN7CCN(C(=O)Cn8ccnc8)CC7)c6nc-5c4c3C2=O)NC(=O)/C(C)=C\C=C\[C@H](C)[C@H](O)[C@@H](C)[C@@H](O)[C@@H](C)[C@H](OC(C)=O)[C@@H]1C
Outgoing: 8.10
